Target: T1, rabbit TF-His (rabbit (Oryctolagus cuniculus), UniProt P24055 33-250)
T1 construct: also called rabbit TF ECD-His
T1 sequence (P24055 other isoform, or with tags, fused parts or gaps): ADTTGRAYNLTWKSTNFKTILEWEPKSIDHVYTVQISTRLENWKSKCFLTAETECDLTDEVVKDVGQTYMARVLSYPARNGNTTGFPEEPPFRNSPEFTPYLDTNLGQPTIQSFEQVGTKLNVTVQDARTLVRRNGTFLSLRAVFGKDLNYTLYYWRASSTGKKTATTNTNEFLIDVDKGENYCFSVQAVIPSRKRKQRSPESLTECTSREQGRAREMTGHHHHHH
Test: SPR (Biacore), antibody captured by anti-human IgG on CM5 chip, rabbit TF-His in solution, 1:1 model
Below: a set of entries, each annotated with reported pKd.
# pKd = -log10(concentration in molar units)

# BINDER, pKd
measured = [
    ("25A5 (antibody, human IgG1, kappa, V domains shown, Human IgG1; also called antibody 25A5) VH: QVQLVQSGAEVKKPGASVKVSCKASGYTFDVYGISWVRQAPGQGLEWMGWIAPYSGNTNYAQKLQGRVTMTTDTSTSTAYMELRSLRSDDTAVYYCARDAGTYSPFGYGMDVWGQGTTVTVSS VL: DIQMTQSPSTLSASVGDRVTITCRASESISNWLAWYQQKPGKAPKLLIYKAYSLEYGVPSRFSGSGSGTEFTLTISSLQPDDFATYYCQQFQKLPPFTFGGGTKVEIKR", 8.27),
]

Request: For the binder shown here, 25G9 (antibody, human IgG1, kappa, V domains shown, Human IgG1; also called antibody 25G9) VH: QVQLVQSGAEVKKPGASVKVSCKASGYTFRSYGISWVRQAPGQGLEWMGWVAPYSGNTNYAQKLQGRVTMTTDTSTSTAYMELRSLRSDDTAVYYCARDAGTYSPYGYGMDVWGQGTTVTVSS VL: DIQMTQSPSTLSASVGDRVTITCQASQSIDSWLAWYQQKPGKAPKLLIYSASYLESGVPSRFSGSGSGTEFTLTISSLQPDDFATYYCQRFQSLPPFTFGGGTKVEIKR , give the reported pKd.
Result: 8.38

Request: Next record, please: 25A (antibody, human IgG1, V domains shown, Human IgG1; also called antibody 25A) VH: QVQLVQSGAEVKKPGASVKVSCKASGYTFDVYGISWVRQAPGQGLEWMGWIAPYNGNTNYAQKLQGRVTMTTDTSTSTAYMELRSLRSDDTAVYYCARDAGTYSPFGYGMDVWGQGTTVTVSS VL: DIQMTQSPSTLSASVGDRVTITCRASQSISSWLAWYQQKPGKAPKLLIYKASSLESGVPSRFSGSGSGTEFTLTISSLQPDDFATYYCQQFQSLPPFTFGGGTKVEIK
Result: 7.30

Request: And the next one, 43D8 (antibody, human IgG1, kappa, V domains shown, Human IgG1; also called antibody 43D8; 43D8 mAb) VH: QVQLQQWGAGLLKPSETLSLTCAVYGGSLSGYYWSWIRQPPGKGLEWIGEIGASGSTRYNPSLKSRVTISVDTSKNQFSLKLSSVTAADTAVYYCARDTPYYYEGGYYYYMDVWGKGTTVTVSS VL: EIVLTQSPGTLSLSPGERATLSCRASQSVSSSFLAWYQQKPGQAPRLLIYGAYSRATGIPDRFSGSGSGTDFTLTISRLEPEDFAVYYCQQAGVVPYTFGGGTKVEIKR ?
Result: 8.11
